Target: Rat VR1 (Rattus norvegicus, UniProt O35433)
Sequence (O35433 whole entry): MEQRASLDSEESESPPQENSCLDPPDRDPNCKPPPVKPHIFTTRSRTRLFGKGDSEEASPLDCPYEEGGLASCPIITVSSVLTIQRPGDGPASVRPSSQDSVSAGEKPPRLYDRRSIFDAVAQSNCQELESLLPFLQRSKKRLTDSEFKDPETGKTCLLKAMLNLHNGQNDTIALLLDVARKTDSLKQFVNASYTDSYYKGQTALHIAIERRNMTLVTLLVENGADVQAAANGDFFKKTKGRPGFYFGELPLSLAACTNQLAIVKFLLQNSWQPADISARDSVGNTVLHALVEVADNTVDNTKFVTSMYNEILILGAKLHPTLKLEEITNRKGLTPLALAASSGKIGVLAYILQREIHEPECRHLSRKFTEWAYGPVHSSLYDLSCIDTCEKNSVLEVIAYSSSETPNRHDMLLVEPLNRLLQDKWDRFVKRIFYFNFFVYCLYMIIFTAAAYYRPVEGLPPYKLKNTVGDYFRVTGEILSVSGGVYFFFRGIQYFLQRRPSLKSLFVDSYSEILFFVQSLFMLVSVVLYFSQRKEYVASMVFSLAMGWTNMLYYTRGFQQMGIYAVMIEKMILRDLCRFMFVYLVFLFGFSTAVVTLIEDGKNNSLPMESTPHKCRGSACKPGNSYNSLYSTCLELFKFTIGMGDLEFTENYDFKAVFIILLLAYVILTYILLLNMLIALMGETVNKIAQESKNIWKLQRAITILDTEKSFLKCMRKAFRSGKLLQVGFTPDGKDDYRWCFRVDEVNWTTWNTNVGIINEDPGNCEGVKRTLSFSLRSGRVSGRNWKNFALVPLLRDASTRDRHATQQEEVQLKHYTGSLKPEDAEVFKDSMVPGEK
Experiment: Broadly stimulated recombinant rat VR1 functional assay (Ca2+ influx, FLIPR)
Format: cell-based
Parameters: expressed in transfected cells
Conditions: recombinant rat VR1, PMA at low pH, Ca2+ influx; read-out: IC50, PKC phosphorylation at low pH
pIC50: −log10 of the molar value.
measured-property: pIC50

• COc1ccc2c(c1)CCC(NC(=O)Nc1cccc3cnccc13)C2Cc1ccccc1 (stereo not shown) = 7.33

====

Molecular target: hVR1 receptors (Homo sapiens, UniProt Q8NER1)
Sequence (Q8NER1 whole entry): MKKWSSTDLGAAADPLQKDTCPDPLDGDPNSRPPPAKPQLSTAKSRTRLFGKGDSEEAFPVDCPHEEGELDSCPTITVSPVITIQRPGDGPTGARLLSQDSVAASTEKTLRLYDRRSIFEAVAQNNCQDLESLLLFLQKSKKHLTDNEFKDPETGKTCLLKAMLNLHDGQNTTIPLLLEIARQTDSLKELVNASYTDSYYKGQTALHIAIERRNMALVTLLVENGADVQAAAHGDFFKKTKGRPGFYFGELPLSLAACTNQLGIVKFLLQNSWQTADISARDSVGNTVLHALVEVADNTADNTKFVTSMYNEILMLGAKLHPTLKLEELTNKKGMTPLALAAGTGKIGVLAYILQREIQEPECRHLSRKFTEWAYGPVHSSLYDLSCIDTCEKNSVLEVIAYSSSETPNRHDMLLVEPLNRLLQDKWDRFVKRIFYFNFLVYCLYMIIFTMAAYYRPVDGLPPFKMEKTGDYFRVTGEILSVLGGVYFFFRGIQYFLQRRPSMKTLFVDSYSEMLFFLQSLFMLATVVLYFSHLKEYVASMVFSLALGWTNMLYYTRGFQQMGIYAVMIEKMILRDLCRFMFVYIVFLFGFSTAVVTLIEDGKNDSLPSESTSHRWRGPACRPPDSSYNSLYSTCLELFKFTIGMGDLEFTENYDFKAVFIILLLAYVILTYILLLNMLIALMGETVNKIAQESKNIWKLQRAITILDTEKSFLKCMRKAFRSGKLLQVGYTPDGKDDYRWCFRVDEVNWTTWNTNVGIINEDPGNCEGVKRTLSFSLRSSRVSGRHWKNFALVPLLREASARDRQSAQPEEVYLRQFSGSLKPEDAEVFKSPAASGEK
Assay: Broadly stimulated recombinant human VR1 functional assay (Ca2+ influx, FLIPR)
Format: cell-based
Design: expressed in transfected cells; host or cells: HEK293
Conditions: recombinant human VR1, stimulus low pH (pH 6.5), Ca2+ influx; read-out: IC50, Low pH
pIC50: −log10 of the molar value.
measured-property: pIC50

- Cl.Cl.Cl.Cl.Cl.Cl.N.N.N.N.N.N.N.N.N.N.N.N.N.N.[O-2].[O-2].[Ru+3].[Ru+3].[Ru+4] [Ruthenium Red, ruthenium red, reference compound]: 6.30

====

Target: hVR1 receptors (Homo sapiens, UniProt Q8NER1)
measured-property: Ki (nM)

* COc1ccc2c(c1)CCC(NC(=O)NCc1ccc(N(C)C3CCCCC3)cc1)C2Cc1ccccc1 (centres unmarked) | 70900
* O=C(Nc1cccc2cnccc12)NC1CCc2c(Cl)cccc2C1Cc1ccccc1 (centres unmarked) | 1.94
* Cc1cc2c(NC(=O)NC3CCc4cc(F)ccc4C3Cc3ccccc3)cccc2cn1 (single isomer, unassigned) [Compound 81a] | 1.12
* COc1ccc2c(c1)CCC(NC(=O)NCc1ccc(OC)c(OC)c1)C2Cc1ccccc1 (centres unmarked) | 13000
* COCOc1ccc(CNC(=S)NC2CCc3ccccc3C2Cc2ccccc2)cc1OC (centres unmarked) | 520
* COc1ccc2c(c1)CC[C@@H](NC(=O)Nc1cccc3cnccc13)[C@H]2Cc1cccc(Cl)c1 (relative stereo) | 1.96
* O=C(Nc1cccc2cnccc12)NC1CCc2cc(Cl)ccc2C1 (centres unmarked) | 2.6
* COc1ccc2c(c1)CCC(NC(=S)NCc1ccc(OC)c(OC)c1)C2Cc1ccccc1 (centres unmarked) | 3110
* COc1ccc2c(c1)CC[C@@H](NC(=O)Nc1cccc3cnccc13)[C@H]2Cc1ccccc1Cl (relative stereo) | 2.66
* COc1ccc2c(c1)CCC(NC(=O)Nc1cccc3ccc(O)cc13)C2Cc1ccccc1 (centres unmarked) | 9.64
* O=C(Nc1cccc2c[n+]([O-])ccc12)NC1CCc2cc(F)ccc2C1Cc1ccccc1 (single isomer, unassigned) | 45.4
* Cc1cc2c(NC(=O)NC3CCc4cc(F)ccc4C3Cc3ccccc3)cccc2cn1 (single isomer, unassigned) [Compound 101] | 1.12
* COc1ccc2c(c1)CCC(NC(=O)Nc1cccc3cnccc13)C2Cc1cccnc1 (centres unmarked) | 1540
* O=C(Nc1cccc2cnccc12)N[C@H]1CCc2cc(Br)ccc2[C@H]1Cc1ccccc1 (relative stereo) | 0.89
* COc1ccc(CC2c3ccc(OC)cc3CCC2NC(=O)Nc2cccc3cnccc23)cc1 (centres unmarked) [Compound 72] | 7.52
* O=C(Nc1cccc2cnccc12)NC1CCc2ccc(Cl)cc2C1 (centres unmarked) | 3.42
* COc1ccc2c(c1)CCC(NC(=O)Nc1cccc3cnccc13)C2 (centres unmarked) | 24
* O=C(Nc1cccc2cnccc12)NC1CCc2cc(F)ccc2C1Cc1ccccc1 (racemic) [Compound 38a] | 1.76
